What TGI was measured for each of the following?
# Tested on: MCF7 breast
# MEASUREMENT_DESCRIPTION: NCI tumour cell line growth inhibition, 48 h
Write the value in µM as a bare number.

input: Endpoint output: TGI of Cc1cc(O)c2c(c1)C(C1c3cccc(O)c3C(=O)c3c(O)cc(C)cc31)c1cccc(O)c1C2=O (stereo not given) . Value?
output: 1.18

input: Please look up its TGI: CSc1ccc2c(c1)c(CCN)c(C)n2Cc1ccccc1Cl
output: 3.11

====

# Tested on: MDA-MB-231 breast
# MEASUREMENT_DESCRIPTION: NCI tumour cell line growth inhibition, 48 h
OBSERVED_PROPERTY: TGI (µM)
Report as a plain number; the unit µM is understood.

input: Look up TGI for this molecule: CCSc1nc(N/N=C/c2cccs2)c2cnn(CO)c2n1
output: 54.8

input: Given the molecule Cc1cc(N2CCOCC2)nc(NCc2cc(Nc3ccnc4cc(Cl)ccc34)ccc2F)n1 , what is its reported TGI?
output: 3.63

input: Requested read-out: TGI. Entry: Cc1ccc(-c2nc3sc(C)cn3c2/C=C2\C(=O)Nc3ccc(Cl)cc32)cc1
output: 20.1

input: // TGI lookup, key: COc1cc(-c2ccc[nH]2)[nH]c1/C=C1\N=C(C)C(CC(=O)OCC(C)(C)C)=C1C
output: 1.53

input: Look at this molecule and give its reported TGI. CC(C)(C)[Si](C)(C)OC1[C@@H](COC(=O)NC(=O)CCl)O[C@@H](n2cnc3c(N)ncnc32)[C@H]1O[Si](C)(C)C(C)(C)C (some centres not stated)
output: 2.76

input: Can you look up the measured TGI of COC(=O)c1c2c(cc3c1CC1(Cc4ccccc4C1)C3)CCC2 for me?
output: 44.9

input: Fill blank: measured TGI of the molecule C(=N\NC1=NCCN1)/c1ccc2ccccc2c1 is ____.
output: 35.3

input: What value of TGI has been recorded for this entry: O=C(NC1C/C(=N/O)c2c(Br)sc(Br)c21)C(F)(F)F (configuration not stated)
output: 30.9

input: Which TGI reading was recorded for the molecule COC(=O)c1cc2cc(/C=C3/SC(=S)N(N(C(C)=O)C(C)=O)C3=O)oc2n1Cc1ccccc1 ?
output: 50.4

input: I'd like to know its TGI. The molecule in question is Cc1ccnc(Nc2[nH]c(C(=O)c3ccc(Cl)cc3)c(N)c2C(=S)Nc2ccccc2)c1
output: 31.6

input: Tell me the measured TGI of COc1ccc2nc3ccccc3c(NCCCCN(CCCl)CCCl)c2c1 , please.
output: 16.7

input: Look up TGI for this molecule: COc1cc(C(=O)O[C@H](C(=O)NCCCCNC(=O)[C@@H](OC(=O)c2cc(OC)cc3c(C)cccc23)[C@]2(C)CO2)[C@]2(C)CO2)c2cccc(C)c2c1
output: 5.48

input: Give its TGI value. Item: COc1ccc(C2=NNC(=O)c3ccccc3N2c2nc(-c3cccs3)nc3cc(OC)c(OC)cc23)cc1
output: 13.5

input: Look up TGI: COc1ccc2nc3ccccc3c(NCCNCC(C)O)c2c1 (configuration not stated)
output: 1.85

input: Given the molecule O=S(=O)(/N=C(\NO)Nc1ccc(Cl)cc1)c1cc2ccccc2s1 , what is its reported TGI?
output: 34.8

input: Fill blank: measured TGI of the molecule CC12O[C@H](C[C@@H](OC(=O)CCC(=O)O)[C@H]1O)n1c3ccccc3c3c4c(c5c6ccccc6n2c5c31)C(=O)NC4=O is ____.
output: 16.2

input: State the recorded TGI for this entry: Cc1cc(O)c2c(c1)C(C1c3cccc(O)c3C(=O)c3c(O)cc(C)cc31)c1cccc(O)c1C2=O (configuration not stated)
output: 1.73

input: Name the recorded TGI for COc1ccc(-c2nnc3n(C)c4ccccc4n3c2=O)cc1 .
output: 56.2

input: For O=C1/C(=C/c2ccc([N+](=O)[O-])o2)Oc2ccc(Cl)cc21 , what is its reported TGI?
output: 4.12

input: Consider the molecule shown here: COC(=O)C12Oc3ccc(-c4ccc5c(c4O)C(O)=C4C(=O)CC(C)C(O)C4(C(=O)OC)O5)c(O)c3C(O)=C1C(=O)CC(C)C2O (configuration not stated) What is its recorded TGI?
output: 6.8

Every entry's value here was drawn from PubChem BioAssay (NCI).
